Just for reference, ChEMBL document CHEMBL2169806 is where these values come from.

assay: Inhibition of bovine PDE3 using [3H]cAMP as substrate; design: species or system Bos taurus
pIC50: −log10 of the molar value.
Assign Yes to entries whose pIC50 meets or exceeds 5; assign No to the rest.

# check: pIC50 of COc1ccc(/C=N/N(C)C(=O)c2ccc(OC)c(OC)c2)cc1OC is greater than or equal to 5
No

Confirm if pIC50 reported for the molecule COc1ccc(/C=N/N(C)C(=O)c2ccc(Cl)cc2)cc1OC is 5 or above.
Yes

Entry COc1cccc(C(=O)N(C)/N=C/c2ccc(OC)c(OC)c2)c1 : is its pIC50 no less than 5?
Yes

Is the recorded value of pIC50 equal to or greater than 5 for this molecule? COc1ccc(C(=O)N(C)/N=C/c2ccc(OC)c(OC)c2)cc1
Yes

# check: pIC50 of COc1ccc(/C=N/N(C)C(=O)c2ccccc2)cc1OC is greater than or equal to 5
No

Textbook exercise: given the entry COc1ccc(/C=N/N(C)C(=O)c2ccccc2OC)cc1OC , state whether its pIC50 is greater than or equal to 5.
Yes

###

target: 3',5'-cyclic-AMP phosphodiesterase 4A (Homo sapiens, UniProt P27815); assay: Inhibition of human recombinant PDE4A
Sequence (P27815 whole entry): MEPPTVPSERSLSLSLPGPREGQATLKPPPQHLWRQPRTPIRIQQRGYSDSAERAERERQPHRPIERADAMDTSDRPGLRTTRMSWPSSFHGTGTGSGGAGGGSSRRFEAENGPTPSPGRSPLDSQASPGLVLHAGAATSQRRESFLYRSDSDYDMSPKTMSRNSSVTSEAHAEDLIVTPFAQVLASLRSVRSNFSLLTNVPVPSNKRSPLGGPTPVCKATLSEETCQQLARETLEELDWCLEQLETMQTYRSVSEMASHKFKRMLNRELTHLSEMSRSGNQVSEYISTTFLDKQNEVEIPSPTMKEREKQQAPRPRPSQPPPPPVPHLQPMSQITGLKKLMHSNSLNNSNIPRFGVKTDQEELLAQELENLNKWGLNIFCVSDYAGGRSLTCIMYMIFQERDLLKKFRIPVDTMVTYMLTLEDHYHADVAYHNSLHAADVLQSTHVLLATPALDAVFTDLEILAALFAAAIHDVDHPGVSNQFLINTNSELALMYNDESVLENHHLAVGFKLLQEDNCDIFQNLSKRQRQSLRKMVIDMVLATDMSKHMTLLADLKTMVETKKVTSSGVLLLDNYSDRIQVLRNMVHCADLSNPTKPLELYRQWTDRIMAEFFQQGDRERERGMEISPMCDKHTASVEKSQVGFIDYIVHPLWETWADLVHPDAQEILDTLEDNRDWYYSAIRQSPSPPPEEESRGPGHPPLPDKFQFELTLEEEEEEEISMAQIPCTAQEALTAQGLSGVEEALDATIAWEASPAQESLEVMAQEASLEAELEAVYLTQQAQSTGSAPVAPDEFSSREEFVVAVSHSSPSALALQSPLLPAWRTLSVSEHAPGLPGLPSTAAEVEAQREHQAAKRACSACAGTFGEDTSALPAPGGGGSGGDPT
Property: pIC50; scope: individual molecules
To interpret pIC50, take it as minus log10 of a concentration measured in moles per litre.

Fill in: 3',5'-cyclic-AMP phosphodiesterase 4A (Homo sapiens, UniProt P27815) pIC50 for COc1ccc(C(=O)N(C)/N=C/c2ccc(OC)c(OC)c2)cc1 = 6.80

With 3',5'-cyclic-AMP phosphodiesterase 4A (Homo sapiens, UniProt P27815) as the test system, COc1ccc(/C=N/N(C)C(=O)c2ccc(O)cc2)cc1OC showed pIC50 of 7.19

// molecule Clc1ncnc2ccccc12 , assay 3',5'-cyclic-AMP phosphodiesterase 4A (Homo sapiens, UniProt P27815), pIC50 value: 6.79

###

system: Mus musculus; experiment: Antiinflammatory activity in A/J mouse assessed as inhibition of leukocyte accumulation in bronchoalveolar space at 100 umol/kg, po administered 1 hr prior to LPS-challenge measured after 18 hrs relative to vehicle-treated control; assay type: functional; conditions: Lung
Values of inhibition in vivo at 100 µmol/kg greater than or equal to 60% map to Y; values below map to N.

SMILES NOTATION: COc1ccc(/C=N/N(C)C(=O)c2ccccc2)cc1OC
SYSTEM UNDER TEST: Mus musculus
ANSWER LABEL: Y
--
SMILES NOTATION: COc1ccc(/C=N/N(C)C(=O)c2ccc3c(c2)OCO3)cc1OC
SYSTEM UNDER TEST: Mus musculus
ANSWER LABEL: Y

Decide: inhibition in vivo at 100 µmol/kg of COc1ccc(/C=N/N(C)C(=O)c2ccc(O)cc2)cc1OC >= 60%?
Y

Could you please find out whether COc1ccc(/C=N/N(C)C(=O)c2ccc(Cl)cc2)cc1OC has inhibition in vivo at 100 µmol/kg that meets 60% or exceeds it?
Y

Answer whether inhibition in vivo at 100 µmol/kg of COc1ccc(/C=N/N(C)C(=O)c2ccc(OC)c(OC)c2)cc1OC is greater than or equal to 60%.
N

Would you say COc1ccc(/C=N/N(C)C(=O)c2ccccc2OC)cc1OC shows inhibition in vivo at 100 µmol/kg at minimum 60%?
N
